biological target: Ptpn11_N SH2 domain (Homo sapiens); test: SPOT peptide array; type: binding; settings: spot intensity as factor of array mean; GST-SH2 0.25 μM
// returns Condition not met unless Peptide array intensity (X mean) is strictly below 0.6 X Mean, in which case Condition met

INSERT INTO results (substance, class_assignment) VALUES
  ('STVEpYSTVVHS [11-mer phosphotyrosine control peptide, gp130/IL-6 Receptor (Y759), reference compound]', 'Condition not met'),
  ('ELSNpYICMGGK [11-mer phosphotyrosine peptide, IRS-1 (Y465)]', 'Condition not met'),
  ('SIEEpYTEMMPA [11-mer phosphotyrosine peptide, IRS-1 (Y551)]', 'Condition met'),
  ('DLSApYASISFQ [11-mer phosphotyrosine peptide, IRS-1 (Y1229)]', 'Condition not met'),
  ('DPNGpYMMMSPS [11-mer phosphotyrosine peptide, IRS-1 (Y662)]', 'Condition met');
